- Assayed System: Rap guanine nucleotide exchange factor 3 (Homo sapiens) (UniProt O95398)
- Method Notes: Counterscreen qHTS for agonist of cAMP-regulated guanine nucleotide exchange factor 3 (EPAC1) (AID 1645889); note: % of control where 0% means no effect; nearly all actives have a fitted effect of over 40% in size
- Conditions Used: EPAC1 Rap1B-BODIPY-GDP exchange, fluorescence; series mostly up to 154 µM
Records with an inconclusive call do not appear. Active and inactive are the calls of the source. Calls come from the whole dose curve; as a rule, active = well fitted activation curve with a large enough effect; inconclusive = small, poorly fitted or top-dose-only effect, or another doubt; inactive = no such curve, though single readings can be large or run the other way.
Quantity Kind: activation

Solved entries (count: 5):
INSERT INTO results (molecule, quantity_kind, meas_value) VALUES
  ('CCCCN1C(=O)C(O)(c2c[nH]c3ccccc23)c2cc(Br)ccc21 (stereo not given)', 'activation', 'inactive'),
  ('O=C(NC1CCC(O)CC1)c1cccc2cccnc12 (stereo not given)', 'activation', 'inactive'),
  ('COc1cccc(C(c2nnnn2-c2c(C)cccc2C)N2CCN(C/C=C/c3ccccc3)CC2)c1OC (stereo not given)', 'activation', 'inactive'),
  ('COc1ccccc1OCC(=O)Nc1cc(C(F)(F)F)ccc1-n1cncn1', 'activation', '5.31% [at 30.8 µM] (inactive)'),
  ('COC(=O)c1sc(-c2ccc(C(C)(C)C)cc2)cc1NC(=O)c1ccccc1C(=O)O', 'activation', '9.25% [at 30.8 µM] (inactive)');

Now examine the next entry.
Entry CCOC(=O)C1=C(C)OC(N)=C(C#N)C1c1ccc(OC)c(CSc2ccccn2)c1 (stereo not given) ; activation = 28.3% [at 30.8 µM] (inactive)
